- subject of test: T1, nSR100 (Mus musculus, UniProt Q8BKA3)
- T1 construct: host or cells: mouse N2A cells
- T1 sequence (Q8BKA3 1-608): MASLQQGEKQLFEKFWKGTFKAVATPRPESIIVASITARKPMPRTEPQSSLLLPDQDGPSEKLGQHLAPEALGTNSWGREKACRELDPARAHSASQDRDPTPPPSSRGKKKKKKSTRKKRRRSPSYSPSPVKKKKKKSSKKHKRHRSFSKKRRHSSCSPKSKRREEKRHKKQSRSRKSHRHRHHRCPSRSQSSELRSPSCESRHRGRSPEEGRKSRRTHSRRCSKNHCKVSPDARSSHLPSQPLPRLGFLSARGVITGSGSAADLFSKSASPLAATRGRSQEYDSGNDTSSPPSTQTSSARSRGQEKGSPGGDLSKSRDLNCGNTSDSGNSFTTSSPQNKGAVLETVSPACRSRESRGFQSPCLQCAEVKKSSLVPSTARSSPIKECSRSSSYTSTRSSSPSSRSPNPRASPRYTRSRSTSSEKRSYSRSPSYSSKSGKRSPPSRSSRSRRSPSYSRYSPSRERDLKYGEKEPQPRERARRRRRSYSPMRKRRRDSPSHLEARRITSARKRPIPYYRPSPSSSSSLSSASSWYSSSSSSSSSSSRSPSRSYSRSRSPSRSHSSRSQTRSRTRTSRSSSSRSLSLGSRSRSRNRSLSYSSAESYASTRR
- experiment notes: AP-MS nSR100 interaction partners from mouse N2A cells (Table 5)
- Format: binding
- condition label: bait Srrm4, sum of spectra over 2 replicates
readout label: SpecSum
// return just the number, without any unit appended

INSERT INTO results (molecule, observed_measurement) VALUES
  ('Ywhaq (protein, UniProt P68254 1-245, looked up) 14-3-3 protein theta: MEKTELIQKAKLAEQAERYDDMATCMKAVTEQGAELSNEERNLLSVAYKNVVGGRRSAWRVISSIEQKTDTSDKKLQLIKDYREKVESELRSICTTVLELLDKYLIANATNPESKVFYLKMKGDYFRYLAEVACGDDRKQTIENSQGAYQEAFDISKKEMQPTHPIRLGLALNFSVFYYEILNNPELACTLAKTAFDEAIAELDTLNEDSYKDSTLIMQLLRDNLTLWTSDSAGEECDAAEGAEN', 36),
  ('Snip1 (protein, UniProt Q8BIZ6 1-383, looked up) Smad nuclear-interacting …: MKAGKSERERSGRRRHRSGDALTTVVVKQERLSPEPVAHRRPDAPAASLSPPAAEPGHSGHRGSRARSPAKKKSKSSGRRSKSPRTKRSQSPHYPMVKVKQEREDHPRRGREDRQHREPSEQEHRRARNSERDRHRGHSRQGRSSDERPVSGQDRDRDSQNLQAQEEERDFHNARRREHRQQNESAGSEAQEVIPRPAGNRSKEVPVKEKPSFELSGALLEDTNTFRGVVIKYSEPPEARIPKKRWRLYPFKNDEVLPVMYIHRQSAYLLGRHRRIADIPIDHPSCSKQHAVFQYRLVEYTRADGTVGRRVKPYIIDLGSGNGTFLNNKRIEPQRYYELKEKDVLKFGFSSREYVLLHESSDTSELDRKEDEDDEEEEMVSDS', 14),
  ('Cdc37 (protein, UniProt Q61081 1-379, looked up) Hsp90 co-chaperone Cdc37: MVDYSVWDHIEVSDDEDETHPNIDTASLFRWRHQARVERMEQFQKEKEELDRGCRECKRKVAECQRKLKELEVAESDGQVELERLRAEAQQLRKEERSWEQKLEDMRKKEKNMPWNVDTLSKDGFSKSMVNTKPEKAEEDSEEAREQKHKTFVEKYEKQIKHFGMLHRWDDSQKYLSDNVHLVCEETANYLVIWCIDLEVEEKCALMEQVAHQTMVMQFILELAKSLKVDPRACFRQFFTKIKTADHQYMEGFKYELEAFKERVRGRAKLRIEKAMKEYEEEERKKRLGPGGLDPVEVYESLPEELQKCFDVKDVQMLQDAISKMDPTDAKYHMQRCIDSGLWVPNSKSGEAKEGEEAGPGDPLLEAVPKAGNEKDVSA', 106),
  ('Csnk2a2 (protein, UniProt O54833 1-350, looked up) Casein kinase II subunit …: MPGPAAGSRARVYAEVNSLRSREYWDYEAHVPSWGNQDDYQLVRKLGRGKYSEVFEAINITNNERVVVKILKPVKKKKIKREVKILENLRGGTNIIKLIDTVKDPVSKTPALVFEYINNTDFKQLYQILTDFDIRFYMYELLKALDYCHSKGIMHRDVKPHNVMIDHQQKKLRLIDWGLAEFYHPAQEYNVRVASRYFKGPELLVDYQMYDYSLDMWSLGCMLASMIFRKEPFFHGQDNYDQLVRIAKVLGTDELYGYLKKYHIDLDPHFNDILGQHSRKRWENFIHSENRHLVSPEALDLLDKLLRYDHQQRLTAKEAMEHPYFYPVVKEQSQPCAENTVLSSGLTAAR', 40);

Kindly review the next molecule as well.
The molecule listed as Bcas2 (protein, UniProt Q9D287 2-225, looked up) Pre-mRNA-splicing factor SPF27: AGTGLVAGEVVVDALPYFDQGYEAPGVREAAAALVEEETRRYRPTKNYLSYLTAPDYSAFETDIMRNEFERLAARQPIELLSMKRYELPAPSSGQKNDITAWQECVNNSMAQLEHQAVRIENLELMSQHGCNAWKVYNENLVHMIEHAQKELQKLRKHIQDLNWQRKNMQLTAGSKLREMESNWVSLVSKNYEIERTIVQLENEIYQIKQQHGEANKENIRQDF has a reported SpecSum of 5
